Source listed as ChEMBL document CHEMBL1134691.

# System: Pichia kudriavzevii
# assay.text: Inhibition of Candida krusei E28 growth for 24 hours in vitro.
# Assay type: functional
# conditions.used: Pichia kudriavzevii, 24 h; read-out: MIC
Each entry below carries its recorded log10 of MIC.
Recall that a logarithmic scale is used here: each number is log10 of MIC in µM.

Examples with answers:
CC(C)(C)C(=O)OCC1C=C(c2ccc(Br)cc2)C(=O)O1 (stereo not drawn)    0.89
COc1ccc(C2=CC(COC(C)=O)OC2=O)cc1 (stereo not drawn)    1.80
C[C@@H]1[C@H](O)[C@@H](C)/C=C/C=C/C=C/C=C/C=C/C=C/C=C/[C@H](O[C@@H]2O[C@H](C)[C@@H](O)[C@H](N)[C@@H]2O)C[C@@H]2O[C@](O)(C[C@@H](O)C[C@@H](O)[C@H](O)CC[C@@H](O)C[C@@H](O)CC(=O)O[C@H]1C)C[C@H](O)[C@H]2C(=O)O [AMPHOTERICIN B]    0.33
COc1ccc(C2=CC(COC(=O)C(C)(C)C)OC2=O)cc1 (stereo not drawn)    1.80
CC(C)(C)C(=O)OCC1C=C(c2ccc(Cl)c(Cl)c2)C(=O)O1 (stereo in doubt; (-)2c)    0.89

Suppose we examine the compound O=C1OC(CO)C=C1c1ccc(Br)cc1 (stereo not drawn) ; what log10 of MIC value has been reported?
2.70

Same question, O=C1OC(COC(=O)c2ccc(Cl)cc2)C=C1c1ccc(Cl)c(Cl)c1 (stereo not drawn) this time
0.59

Same question, CC(=O)N1CCN(c2ccc(OCC3COC(Cn4ccnc4)(c4ccc(Cl)cc4Cl)O3)cc2)CC1 (stereo not drawn) [KETOCONAZOLE] this time
0.59
